- System: NCI-H647
- assay.info: relative viability (nuclei count vs DMSO), 5 days (fraction); higher = more cells survive
- applied.conditions: first compound 158.11 µM
parameter: relative viability
Give bare numbers.

Answered cases to consult:
>>> test_result("O=C(O)CCCCC(CCSCc1ccccc1)SCc1ccccc1 (stereo not drawn) [CPI-613] + C[C@@H](Oc1cc(-c2cnn(C3CCNCC3)c2)cnc1N)c1c(Cl)ccc(F)c1Cl [Crizotinib] (partner 1 µM)")
0.0681
>>> test_result("O=C(O)CCCCC(CCSCc1ccccc1)SCc1ccccc1 (stereo not drawn) [CPI-613] + CC(C)C[C@H](NC(=O)[C@H](Cc1ccccc1)NC(=O)c1cnccn1)B(O)O [Bortezomib] (partner 0.002 µM)")
0.0678

For record O=C(O)CCCCC(CCSCc1ccccc1)SCc1ccccc1 (stereo not drawn) [CPI-613] + Cc1nc(NC(=O)N2CCC[C@H]2C(N)=O)sc1-c1ccnc(C(C)(C)C(F)(F)F)c1 [Alpelisib] (partner 2 µM) the listed relative viability is 0.0933

###

- Test system: NCI-H1792
- assay.info: relative viability (nuclei count vs DMSO), 5 days (fraction); higher = more cells survive
- applied.conditions: first compound 0.253 µM
parameter: relative viability
Give bare numbers.

Answered cases to consult:
>>> test_result("Cc1cnc(-c2cnc(NCCNc3ccc(C#N)cn3)nc2-c2ccc(Cl)cc2Cl)[nH]1 + CS(=O)(=O)N1CCN(Cc2cc3nc(-c4cccc5[nH]ncc45)nc(N4CCOCC4)c3s2)CC1 [Pictilisib] (partner 1 µM)")
0.268
>>> test_result("O=c1[nH]c2ccccc2n1C1CCN(CCCC(c2ccc(F)cc2)c2ccc(F)cc2)CC1 [Pimozide] + CC(C)C[C@H](NC(=O)[C@H](Cc1ccccc1)NC(=O)c1cnccn1)B(O)O [Bortezomib] (partner 0.002 µM)")
0.939
>>> test_result("Cc1cnc(-c2cnc(NCCNc3ccc(C#N)cn3)nc2-c2ccc(Cl)cc2Cl)[nH]1 + CCNC(=O)c1noc(-c2cc(C(C)C)c(O)cc2O)c1-c1ccc(CN2CCOCC2)cc1 [Luminespib] (partner 0.01 µM)")
0.432

Now for another entry.
For record Cc1cnc(-c2cnc(NCCNc3ccc(C#N)cn3)nc2-c2ccc(Cl)cc2Cl)[nH]1 + CS(=O)(=O)CCNCc1ccc(-c2ccc3ncnc(Nc4ccc(OCc5cccc(F)c5)c(Cl)c4)c3c2)o1 [Lapatinib] (partner 2 µM) the listed relative viability is 0.756

###

- Tested on: NCI-H441
- assay.info: relative viability (nuclei count vs DMSO), 5 days (fraction); higher = more cells survive
- applied.conditions: first compound 158.11 µM
Classify: 1.0 when relative viability is strictly less than 0.3; 0.0 when relative viability is not.

>>> category("O=C(O)CCCCC(CCSCc1ccccc1)SCc1ccccc1 (stereo unspecified) [CPI-613] + COc1cc2c(Oc3ccc(NC(=O)C4(C(=O)Nc5ccc(F)cc5)CC4)cc3F)ccnc2cc1OCCCN1CCOCC1 [Foretinib] (partner 0.25 µM)")
1.0
>>> category("O=C(O)CCCCC(CCSCc1ccccc1)SCc1ccccc1 (stereo unspecified) [CPI-613] + CC(C)C[C@H](NC(=O)[C@H](Cc1ccccc1)NC(=O)c1cnccn1)B(O)O [Bortezomib] (partner 0.002 µM)")
1.0

Please indicate whether the reported relative viability of O=C(O)CCCCC(CCSCc1ccccc1)SCc1ccccc1 (stereo unspecified) [CPI-613] + NC(=O)Nc1cc(-c2cccc(F)c2)sc1C(=O)N[C@H]1CCCNC1 [AZD7762] (partner 0.2 µM) is strictly below 0.3.
0.0

Please indicate whether the reported relative viability of O=C(O)CCCCC(CCSCc1ccccc1)SCc1ccccc1 (stereo unspecified) [CPI-613] + O=C(CCCCCCC(=O)Nc1ccccc1)NO [Vorinostat] (partner 1 µM) is strictly below 0.3.
0.0

Please indicate whether the reported relative viability of O=C(O)CCCCC(CCSCc1ccccc1)SCc1ccccc1 (stereo unspecified) [CPI-613] + N=C(N)NC(=N)NCCc1ccccc1 [Phenformin] (partner 250 µM) is strictly below 0.3.
1.0

Please indicate whether the reported relative viability of O=C(O)CCCCC(CCSCc1ccccc1)SCc1ccccc1 (stereo unspecified) [CPI-613] + Nc1nc2[nH]cc(CCc3ccc(C(=O)N[C@@H](CCC(=O)O)C(=O)O)cc3)c2c(=O)[nH]1 [Pemetrexed] (partner 0.2 µM) is strictly below 0.3.
1.0

###

- System: NCI-H1355
- assay.info: relative viability (nuclei count vs DMSO), 5 days (fraction); higher = more cells survive
- applied.conditions: first compound 0.0002 µM
parameter: relative viability
Numbers only.

Answered cases to consult:
>>> test_result("CC(=O)O[C@@]12CO[C@@H]1C[C@H](O)[C@@]1(C)C(=O)[C@H](O)C3=C(C)[C@@H](OC(=O)[C@H](O)[C@@H](NC(=O)OC(C)(C)C)c4ccccc4)C[C@@](O)([C@@H](OC(=O)c4ccccc4)[C@H]21)C3(C)C [Docetaxel] + O=C(CCCCCCC(=O)Nc1ccccc1)NO [Vorinostat] (partner 1 µM)")
0.631
>>> test_result("CC(=O)O[C@@]12CO[C@@H]1C[C@H](O)[C@@]1(C)C(=O)[C@H](O)C3=C(C)[C@@H](OC(=O)[C@H](O)[C@@H](NC(=O)OC(C)(C)C)c4ccccc4)C[C@@](O)([C@@H](OC(=O)c4ccccc4)[C@H]21)C3(C)C [Docetaxel] + CC1(C)CCC(c2ccc(Cl)cc2)=C(CN2CCN(c3ccc(C(=O)NS(=O)(=O)c4ccc(N[C@H](CCN5CCOCC5)CSc5ccccc5)c(S(=O)(=O)C(F)(F)F)c4)cc3)CC2)C1 [Navitoclax] (partner 0.5 µM)")
0.901
>>> test_result("CC(=O)O[C@@]12CO[C@@H]1C[C@H](O)[C@@]1(C)C(=O)[C@H](O)C3=C(C)[C@@H](OC(=O)[C@H](O)[C@@H](NC(=O)OC(C)(C)C)c4ccccc4)C[C@@](O)([C@@H](OC(=O)c4ccccc4)[C@H]21)C3(C)C [Docetaxel] + Nc1ncn([C@H]2C[C@H](O)[C@@H](CO)O2)c(=O)n1 [Decitabine] (partner 2 µM)")
0.35
>>> test_result("CC(=O)O[C@@]12CO[C@@H]1C[C@H](O)[C@@]1(C)C(=O)[C@H](O)C3=C(C)[C@@H](OC(=O)[C@H](O)[C@@H](NC(=O)OC(C)(C)C)c4ccccc4)C[C@@](O)([C@@H](OC(=O)c4ccccc4)[C@H]21)C3(C)C [Docetaxel] + C[C@@H](Oc1cc(-c2cnn(C3CCNCC3)c2)cnc1N)c1c(Cl)ccc(F)c1Cl [Crizotinib] (partner 1 µM)")
1.01

Required: relative viability, one value per molecule below.
1. CC(=O)O[C@@]12CO[C@@H]1C[C@H](O)[C@@]1(C)C(=O)[C@H](O)C3=C(C)[C@@H](OC(=O)[C@H](O)[C@@H](NC(=O)OC(C)(C)C)c4ccccc4)C[C@@](O)([C@@H](OC(=O)c4ccccc4)[C@H]21)C3(C)C [Docetaxel] + CC(C)C[C@H](NC(=O)[C@H](Cc1ccccc1)NC(=O)c1cnccn1)B(O)O [Bortezomib] (partner 0.002 µM)
2. CC(=O)O[C@@]12CO[C@@H]1C[C@H](O)[C@@]1(C)C(=O)[C@H](O)C3=C(C)[C@@H](OC(=O)[C@H](O)[C@@H](NC(=O)OC(C)(C)C)c4ccccc4)C[C@@](O)([C@@H](OC(=O)c4ccccc4)[C@H]21)C3(C)C [Docetaxel] + CS(=O)(=O)N1CCN(Cc2cc3nc(-c4cccc5[nH]ncc45)nc(N4CCOCC4)c3s2)CC1 [Pictilisib] (partner 1 µM)

1.2
0.479

For record CC(=O)O[C@@]12CO[C@@H]1C[C@H](O)[C@@]1(C)C(=O)[C@H](O)C3=C(C)[C@@H](OC(=O)[C@H](O)[C@@H](NC(=O)OC(C)(C)C)c4ccccc4)C[C@@](O)([C@@H](OC(=O)c4ccccc4)[C@H]21)C3(C)C [Docetaxel] + Cc1nc(NC(=O)N2CCC[C@H]2C(N)=O)sc1-c1ccnc(C(C)(C)C(F)(F)F)c1 [Alpelisib] (partner 2 µM) the listed relative viability is 0.726

###

- System: NCI-H1915
- assay.info: relative viability (nuclei count vs DMSO), 5 days (fraction); higher = more cells survive
- applied.conditions: first compound 0.253 µM
I'd appreciate it if you could supply relative viability values for the items below.

Answered cases to consult:
>>> test_result("O=c1[nH]c2ccccc2n1C1CCN(CCCC(c2ccc(F)cc2)c2ccc(F)cc2)CC1 [Pimozide] + CS(=O)(=O)CCNCc1ccc(-c2ccc3ncnc(Nc4ccc(OCc5cccc(F)c5)c(Cl)c4)c3c2)o1 [Lapatinib] (partner 2 µM)")
0.927
>>> test_result("O=c1[nH]c2ccccc2n1C1CCN(CCCC(c2ccc(F)cc2)c2ccc(F)cc2)CC1 [Pimozide] + COc1cccc2cc(-c3nc([C@H]4CC[C@H](C(=O)O)CC4)n4ncnc(N)c34)[nH]c12 [OSI-027] (partner 0.5 µM)")
0.575
>>> test_result("Cc1cnc(-c2cnc(NCCNc3ccc(C#N)cn3)nc2-c2ccc(Cl)cc2Cl)[nH]1 + COc1cc2c(Oc3ccc(NC(=O)C4(C(=O)Nc5ccc(F)cc5)CC4)cc3F)ccnc2cc1OCCCN1CCOCC1 [Foretinib] (partner 0.25 µM)")
0.844

Now for another entry.
For record Cc1cnc(-c2cnc(NCCNc3ccc(C#N)cn3)nc2-c2ccc(Cl)cc2Cl)[nH]1 + Cc1nc(Nc2ncc(C(=O)Nc3c(C)cccc3Cl)s2)cc(N2CCN(CCO)CC2)n1 [Dasatinib] (partner 0.075 µM) the listed relative viability is 0.294
